- System: human osteoblast (KK-3, 18PDL)
- Protocol Summary: Determination (3) of bone formation activity (KK-3, 14 days)
- Type: cell-based
- Setup Conditions: Table 40; 10^-6 M; control 90 ± 8
Entries and their measured Ca follow.
Numbers only; they are read as μg/dish.

Molecule	Measurement Unit	Reported
C[S+]([O-])C1=CC(O)(CCCCOc2ccccc2)/C(=C/C=C/C(O)CCCO)C1=O (stereo not shown) [drawing 1109]	μg/dish	109
CSC1=CC(=CCCCOc2ccccc2)/C(=C/C=C/C(O)CCCO)C1=O (stereo not shown) [drawing 1108]	μg/dish	105
CCCCCC(O)C=CC1C=C(SC)C(=O)C1=CCCCCCC(=O)OC (stereo not shown) [drawing 1111]	μg/dish	79

// below: Ca requested for another molecule
// sample CSC1=CC(=CCCCOc2ccccc2)C(=C/C=C\C(O)CCCO)C1=O (stereo not shown) , its Ca was 109

* * *

Entries and their measured ALP follow.
- Test system: human osteoblast (KK-3, 18PDL)
- Protocol Summary: Determination (3) of bone formation activity (KK-3, 14 days)
- Format: cell-based
- Setup Conditions: Table 40; 10^-7 M; control 0.72 ± 0.17
- Method: Human osteoblast (KK-3, 18PDL) was cultured in α-MEM containing 10% fetal bovine serum, and when a stable growth was attained, a predetermined concentration of the compound was added in the presence of 2 mM α-glycerophosphoric acid salt, followed by treatment for 14 days. The cell layer was washed with a physioligical salt solution and the alkali phosphatase activity then measured by absorption at OD415. […]
Numbers only; they are read as OD 415 nm/dish.

Sample records with ALP:
Compound	Measurement Unit	ALP
C[S+]([O-])C1=CC(O)(CCCCOc2ccccc2)/C(=C/C=C/C(O)CCCO)C1=O (stereo not shown) [drawing 1109]	OD 415 nm/dish	0.81
CSC1=CC(=CCCCOc2ccccc2)C(=C/C=C\C(O)CCCO)C1=O (stereo not shown)	OD 415 nm/dish	0.94
CSC1=CC(=CCCCOc2ccccc2)/C(=C/C=C/C(O)CCCO)C1=O (stereo not shown) [drawing 1108]	OD 415 nm/dish	0.69

// below: ALP requested for another compound
Reported ALP (human osteoblast (KK-3, 18PDL)) for entry CCCCCC(O)C=CC1C=C(SC)C(=O)C1=CCCCCCC(=O)OC (stereo not shown) [drawing 1111] is 0.73

* * *

- System: human osteoblasts (KK-3, 18PDL)
- Protocol Summary: Measurement of bone formation activity (KK-3, 14 days)
- Assay type: cell-based
- Setup Conditions: Table 35; 10^-6 M; control 3.00 ± 1.00
Result Type: Ca

Compound	Ca
CSC1=CC(O)(CCCCOc2ccccc2)C(C(/C=C/C(O)CCCO)OC(=O)OC(C)C)C1=O (stereo not shown)	25.00 ± 1.73 μg/dish

// sample CC(C)OC(=O)OC(/C=C/C(O)CCCO)C1C(=O)C(Sc2nccn2C)=CC1(O)CCCCOc1ccccc1 (stereo not shown) , its Ca was 54.67 ± 2.08 μg/dish

// sample CC(=O)OC(/C=C/C(O)CCCO)C1C(=O)C(Sc2nccn2C)=CC1(O)CCCCOc1ccccc1 (stereo not shown) , its Ca was 51.67 ± 8.08 μg/dish

// sample CSC1=CC(O)(CCCCOc2ccccc2)C(C(/C=C/C(O)CCCO)OC(C)=O)C1=O (stereo not shown) , its Ca was 24.08 ± 2.00 μg/dish

* * *

- Tested on: human osteoblast (KK-3, 18PDL)
- Protocol Summary: Determination (3) of bone formation activity (KK-3, 14 days)
- Type: cell-based
- Setup Conditions: Table 40; 10^-7 M; control 90 ± 8
- Procedure: Human osteoblast (KK-3, 18PDL) was cultured in α-MEM containing 10% fetal bovine serum, and when a stable growth was attained, a predetermined concentration of the compound was added in the presence of 2 mM α-glycerophosphoric acid salt, followed by treatment for 14 days. The cell layer was washed with a physioligical salt solution and the alkali phosphatase activity then measured by absorption at OD415. […]
Entries and their measured Ca follow.
Numbers only; they are read as μg/dish.

Compound	Measurement Unit	Reported
CCCCCC(O)C=CC1C=C(SC)C(=O)C1=CCCCCCC(=O)OC (stereo not shown) [drawing 1111]	μg/dish	78

// sample C[S+]([O-])C1=CC(O)(CCCCOc2ccccc2)/C(=C/C=C/C(O)CCCO)C1=O (stereo not shown) [drawing 1109] , its Ca was 89

// sample CSC1=CC(=CCCCOc2ccccc2)C(=C/C=C\C(O)CCCO)C1=O (stereo not shown) , its Ca was 85

// sample CSC1=CC(=CCCCOc2ccccc2)/C(=C/C=C/C(O)CCCO)C1=O (stereo not shown) [drawing 1108] , its Ca was 110

* * *

- Tested on: human osteoblast (KK-3, 18PDL)
- Protocol Summary: Determination (3) of bone formation activity (KK-3, 14 days)
- Format: cell-based
- Setup Conditions: Table 40; 10^-6 M; control 0.72 ± 0.17
Result Type: ALP (OD 415 nm/dish)
Numbers only; they are read as OD 415 nm/dish.

Sample records with ALP:
Molecule	Experimental Target	ALP (OD 415 nm/dish)
CCCCCC(O)C=CC1C=C(SC)C(=O)C1=CCCCCCC(=O)OC (stereo not shown) [drawing 1111]	human osteoblast (KK-3, 18PDL)	0.68
CSC1=CC(=CCCCOc2ccccc2)/C(=C/C=C/C(O)CCCO)C1=O (stereo not shown) [drawing 1108]	human osteoblast (KK-3, 18PDL)	0.75
C[S+]([O-])C1=CC(O)(CCCCOc2ccccc2)/C(=C/C=C/C(O)CCCO)C1=O (stereo not shown) [drawing 1109]	human osteoblast (KK-3, 18PDL)	0.92

// below: ALP requested for another molecule
// sample CSC1=CC(=CCCCOc2ccccc2)C(=C/C=C\C(O)CCCO)C1=O (stereo not shown) , its ALP was 0.94
